Measured Geometric Mean Ratio, AUC, listed per entry.
Assay: Effect of fluvoxamine co-administration on tasimelteon pharmacokinetics
Assay type: in vivo, human
Settings: Day 8 (with fluvoxamine) vs Day 1
Report the value in % with no unit label.

Below are worked cases with known answers.
Inquiry: # input molecule: CCC(=O)NC[C@@H]1C[C@H]1c1cccc(O)c1CCO ; wanted: its Geometric Mean Ratio, AUC
Reply text: 126.03

Inquiry: If you can, please state the reported Geometric Mean Ratio, AUC value of CCC(=O)NC[C@@H]1C[C@H]1c1cccc(O)c1CC(=O)O .
Reply text: 122.56

Others:
Inquiry: For the molecule CCC(=O)NCC1CC1c1cccc2c1C(O)CO2 (stereo not drawn) [M14] , what Geometric Mean Ratio, AUC is on record?
Reply text: 944.73

Inquiry: Looking for the measured Geometric Mean Ratio, AUC of CCC(=O)NCC1CC1c1cccc2c1C(O)CO2 (stereo not drawn) [M12] , can you help?
Reply text: 274.81

Inquiry: Geometric Mean Ratio, AUC lookup needed for CCC(=O)NCC1CC1c1cccc2c1CC(O)O2 (stereo not drawn) , thanks.
Reply text: 125.05

Inquiry: Item CCC(=O)NC[C@@H]1C[C@H]1c1cccc2c1CCO2 (relative stereo) has what recorded Geometric Mean Ratio, AUC?
Reply text: 653.36

----------
Test: Effect of smoking on concentration of tasimelteon and metabolites
Assay type: in vivo, human
Conditions: Smokers vs Non-Smokers
REPORTED_ENDPOINT: Geometric Mean Ratio, Cmax (%)
Expressed in %, but write only the number.

Previously resolved entries follow.
Inquiry: // lookup Geometric Mean Ratio, Cmax for CCC(=O)NC[C@@H]1C[C@H]1c1cccc2c1CCO2 (relative stereo) [Tasimelteon]
Reply text: 63.98

Inquiry: Field request: Geometric Mean Ratio, Cmax | item: CCC(=O)NC[C@@H]1C[C@H]1c1cccc(O)c1CC(=O)O [M9]
Reply text: 77.18

Inquiry: Reported Geometric Mean Ratio, Cmax, compound CCC(=O)NCC1CC1c1cccc2c1C(O)CO2 (stereo not drawn) [M14] : ____
Reply text: 60.17

Inquiry: Requested read-out: Geometric Mean Ratio, Cmax. Entry: CCC(=O)NCC1CC1c1cccc2c1C(O)CO2 (stereo not drawn) [M12]
Reply text: 115.53

Inquiry: Item under review: CCC(=O)NC[C@@H]1C[C@H]1c1cccc(O)c1CCO [M11] . Reported Geometric Mean Ratio, Cmax?
Reply text: 84.50

// moving on: another record for Geometric Mean Ratio, Cmax
Inquiry: Query: Geometric Mean Ratio, Cmax; subject: CCC(=O)NCC1CC1c1cccc2c1CC(O)O2 (stereo not drawn) [M13]
Reply text: 99.49

----------
Assay: Effect of fluvoxamine co-administration on tasimelteon pharmacokinetics
Format: in vivo, human
Details: Day 8 (with fluvoxamine) vs Day 1
REPORTED_ENDPOINT: Geometric Mean Ratio, Cmax (%)
Provide only the numeric value, understood in %.

Consider the reported Geometric Mean Ratio, Cmax for these compounds:
Inquiry: Form field: reported Geometric Mean Ratio, Cmax of CCC(=O)NCC1CC1c1cccc2c1C(O)CO2 (stereo not drawn) [M14]
Reply text: 264.58

Inquiry: // lookup Geometric Mean Ratio, Cmax for CCC(=O)NC[C@@H]1C[C@H]1c1cccc(O)c1CC(=O)O [M9]
Reply text: 64.94

Okay, now this compound:
Inquiry: Which Geometric Mean Ratio, Cmax value is on record for CCC(=O)NCC1CC1c1cccc2c1CC(O)O2 (stereo not drawn) [M13] ?
Reply text: 69.31
